The origin of these recorded values is ChEMBL document CHEMBL4393743.

Overview of recorded pIC50 for various compounds
- System: MCF7
- Method description: Antiproliferative activity against human MCF7 cells assessed as cell growth inhibition incubated for 72 hrs by MTT assay
- Type: functional, cell-based
- Condition set: MCF7, 72 h
Recall that pIC50 is obtained by taking minus log10 of the concentration measured in molar.

Consider the following illustrative entries.
So, `COc1ccc(/C=C/C(=O)c2cc(OC)c(OC)c(OC)c2)cc1O` ? Its pIC50 was 5.07

In plain terms, `COc1ccc(/C=C/C(=O)c2cc(OC)c(OC)c(OC)c2)cc1OCCCCCCC(=O)NO` has a documented pIC50 of 4.75

New cases:
`COc1ccc(/C=C(\C)C(=O)c2cc(OC)c(OC)c(OC)c2)cc1OCCCCCCCC(=O)NO` yielded pIC50 of 4.92

Entry `COc1ccc(/C=C(\C)C(=O)c2cc(OC)c(OC)c(OC)c2)cc1OCCCC(=O)NO` — recorded pIC50 = 5.13
